test: Comparison of spectral properties of reactive dyes, Table 1; format: physicochemical; settings: at second maximum
measurement.type: ε (M⁻¹ cm⁻¹)
The response must be a number in M⁻¹ cm⁻¹ with no trailing unit.

State the recorded ε for this entry: "NNC(=O)COc1cc(S(=O)(=O)[O-])c2ccc3c(S(=O)(=O)[O-])cc(S(=O)(=O)[O-])c4ccc1c2c43.[Na+].[Na+].[Na+]"
23300

---

assay: Spectral properties (absorption/emission) of new pyrenyloxy sulfonic acid dyes, Table 4; type: physicochemical; details: 50 mM aqueous potassium phosphate buffer at pH 8.0; uncorrected
Where a name gives a salt, the structure may show the parent alone.
measurement.type: Em Max

molecule	Em Max
O=C(O)COc1cc(S(=O)(=O)[O-])c2ccc3c(S(=O)(=O)[O-])cc(S(=O)(=O)[O-])c4ccc1c2c43.[Na+].[Na+].[Na+] [Compound 2]	430 nm
COC(=O)COc1cc(OCC(=O)OC)c2ccc3c(S(=O)(=O)O)cc(S(=O)(=O)O)c4ccc1c2c43 [Compound 21, disodium salt]	447 nm
NCCCCCNC(=O)COc1cc(S(=O)(=O)O)c2ccc3c(S(=O)(=O)O)cc(S(=O)(=O)O)c4ccc1c2c43 [Compound 4, trisodium salt]	422 nm

State the recorded Em Max for this entry: CC(C)(C)OC(=O)N1CCC[C@H]1C(=O)NCCNC(=O)COc1cc(S(=O)(=O)[O-])c2ccc3c(S(=O)(=O)[O-])cc(S(=O)(=O)[O-])c4ccc1c2c43.[Na+].[Na+].[Na+] [Compound 14]
422 nm

Another molecule to check: [N-]=[N+]=Nc1ccc(C(=O)NCCCCCNC(=O)COc2cc(S(=O)(=O)[O-])c3ccc4c(S(=O)(=O)[O-])cc(S(=O)(=O)[O-])c5ccc2c3c54)cc1.[Na+].[Na+].[Na+] [Compound 20]
424 nm

---

assay: Comparison of spectral properties of reactive dyes, Table 1; type: physicochemical; conditions: first maximum
measurement.type: Abs Max (nm)
The response must be a number in nm with no trailing unit.

In [3]: df
Out[3]:
                           molecular_string  value_measured
0           Cc1c(CC(=O)O)c(=O)oc2cc(O)ccc12             360
1           Cc1c(CC(=O)O)c(=O)oc2cc(N)ccc12             354
2  NNC(=O)COc1cc(S(=O)(=O)[O-])c2ccc3c(S(=O)(=O)[O-])cc(S(=O)(=O)[O-])c4ccc1c2c43.[Na+].[Na+].[Na+]             399
3         O=C(O)CCCc1ccc2ccc3cccc4ccc1c2c34             341
4  O=S(=O)(O)c1cc(N=C=S)c2ccc3c(S(=O)(=O)O)cc(S(=O)(=O)O)c4ccc1c2c34             373

State the recorded Abs Max for this entry: "CN(C)c1cccc2c(S(=O)(=O)O)cccc12"
340

---

Experiment: Comparison of spectral properties of reactive dyes, Table 1
Assay type: physicochemical
Description: A number of dyes have been proposed in the literature that can be excited and detected at wavelengths less than 500 nm. Several chemically reactive fluorophores that can be excited in the near ultraviolet and short wavelength visible region of the spectrum have been described. […]
measurement.type: ε (M⁻¹ cm⁻¹)
The response must be a number in M⁻¹ cm⁻¹ with no trailing unit.

State the recorded ε for this entry: "CC(=O)Nc1ccc(/C=C/c2ccc(N=C=S)cc2S(=O)(=O)O)c(S(=O)(=O)O)c1"
37400
